Every entry's value here was drawn from patent US20240209076A1.

- targetOrSystem: human IL-6 (human, UniProt P05231 30-212)
- Sequence (P05231 30-212 limits assumed): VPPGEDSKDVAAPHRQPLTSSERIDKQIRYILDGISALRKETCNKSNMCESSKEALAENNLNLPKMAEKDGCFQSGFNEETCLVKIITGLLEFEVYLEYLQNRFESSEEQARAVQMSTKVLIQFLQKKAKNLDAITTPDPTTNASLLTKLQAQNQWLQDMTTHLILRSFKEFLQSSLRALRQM
- assayName: SPR (Biacore), supernatant antibody on Protein A chip, IL-6 flowed, 37 C
Below: a set of entries, each annotated with reported Kd.
Reply with just the number (in pM).

// below: answered binders
* anti-IL-6 antibody, heavy chain I51A, G66D / light chain M32L, M50D, N52S, M88Q (antibody, human IgG1, V domains shown, Human IgG1) VH: EVQLVESGGGLVQPGGSLRLSCAASGFTFSPFAMSWVRQAPGKGLEWVAKASPGGSWTYYSDTVTDRFTFSLDTSKSTAYLQMNSLRAEDTAVYYCARQLWGYYALDIWGQGTLVTVSS VL: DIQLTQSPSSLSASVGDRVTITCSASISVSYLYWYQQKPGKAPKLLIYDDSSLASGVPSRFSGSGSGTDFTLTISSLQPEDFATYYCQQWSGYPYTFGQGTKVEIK | 559
* anti-IL-6 antibody, heavy chain T63H, G66D / light chain M32L, M50D, N52S, M88Q (antibody, human IgG1, V domains shown, Human IgG1) VH: EVQLVESGGGLVQPGGSLRLSCAASGFTFSPFAMSWVRQAPGKGLEWVAKISPGGSWTYYSDHVTDRFTFSLDTSKSTAYLQMNSLRAEDTAVYYCARQLWGYYALDIWGQGTLVTVSS VL: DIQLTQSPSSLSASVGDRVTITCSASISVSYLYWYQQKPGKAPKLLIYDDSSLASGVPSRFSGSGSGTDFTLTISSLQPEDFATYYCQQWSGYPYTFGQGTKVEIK | 280
* anti-IL-6 antibody, heavy chain S35A, G66D / light chain M32L, M50D, N52S, M88Q (antibody, human IgG1, V domains shown, Human IgG1) VH: EVQLVESGGGLVQPGGSLRLSCAASGFTFSPFAMAWVRQAPGKGLEWVAKISPGGSWTYYSDTVTDRFTFSLDTSKSTAYLQMNSLRAEDTAVYYCARQLWGYYALDIWGQGTLVTVSS VL: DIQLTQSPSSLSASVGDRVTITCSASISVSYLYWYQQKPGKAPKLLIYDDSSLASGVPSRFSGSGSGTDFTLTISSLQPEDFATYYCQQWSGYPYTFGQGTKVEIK | 657
* anti-IL-6 antibody, heavy chain S35F, G66D / light chain M32L, M50D, N52S, M88Q (antibody, human IgG1, V domains shown, Human IgG1) VH: EVQLVESGGGLVQPGGSLRLSCAASGFTFSPFAMFWVRQAPGKGLEWVAKISPGGSWTYYSDTVTDRFTFSLDTSKSTAYLQMNSLRAEDTAVYYCARQLWGYYALDIWGQGTLVTVSS VL: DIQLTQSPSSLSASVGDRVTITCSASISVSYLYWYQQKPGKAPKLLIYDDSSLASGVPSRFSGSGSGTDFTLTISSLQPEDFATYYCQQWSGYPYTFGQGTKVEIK | 3170
* anti-IL-6 antibody, heavy chain T63I, G66D / light chain M32L, M50D, N52S, M88Q (antibody, human IgG1, V domains shown, Human IgG1) VH: EVQLVESGGGLVQPGGSLRLSCAASGFTFSPFAMSWVRQAPGKGLEWVAKISPGGSWTYYSDIVTDRFTFSLDTSKSTAYLQMNSLRAEDTAVYYCARQLWGYYALDIWGQGTLVTVSS VL: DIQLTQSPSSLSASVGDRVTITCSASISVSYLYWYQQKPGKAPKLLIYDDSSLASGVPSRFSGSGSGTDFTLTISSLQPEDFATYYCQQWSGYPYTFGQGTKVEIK | 288

API: the following record is the query input.
QUERY: Endpoint output: Kd of anti-IL-6 antibody, heavy chain T63L, G66D / light chain M32L, M50D, N52S, M88Q (antibody, human IgG1, V domains shown, Human IgG1) VH: EVQLVESGGGLVQPGGSLRLSCAASGFTFSPFAMSWVRQAPGKGLEWVAKISPGGSWTYYSDLVTDRFTFSLDTSKSTAYLQMNSLRAEDTAVYYCARQLWGYYALDIWGQGTLVTVSS VL: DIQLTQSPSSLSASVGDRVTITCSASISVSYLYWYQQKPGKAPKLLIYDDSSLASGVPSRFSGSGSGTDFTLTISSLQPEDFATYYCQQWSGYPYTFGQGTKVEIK . Value?
RESULT: 283
